Source listed as PubChem BioAssay AID2060619.

# Test system: 323965-272-R-J2-PDC complex spheroid viability;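 also: spheroids exposed to agents for seven days before readout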
# method_description: Anticancer human tumor 323965-272-R-J2-PDC patient-derived pancreatic carcinoma cell line growth inhibition [CLK]; active = viability on the fitted dose curve at most 10% of control; inactive = the rest
# test_parameters: second compound 1 µM; first compound 0.1 µM
Can you answer with just one of these options? active, inactive

Exam item: What was the test verdict on CC(Nc1ccc2c(c1)OCCn1cc(N3C(=O)OCC3C(F)F)nc1-2)C(N)=O (stereo not given) + CNC(=O)c1ccc(Nc2nc(OC3CCCC3)c3c(-c4ccc5nc(C)oc5c4)c[nH]c3n2)c(OC)c1 ?
Marked response: inactive

Exam item: Moving on to CCc1c2c(nc3ccc(O)cc13)-c1cc3c(c(=O)n1C2)COC(=O)[C@]3(O)CC + CN1CCN(c2cc(C(=O)Nc3cc4cc(-c5cnn(C)c5)ccc4cn3)ccn2)CC1
Marked response: active

Exam item: Moving on to CC1COCCN1c1cc(C2(S(C)(=N)=O)CC2)nc(-c2ccnc3[nH]ccc23)n1 (stereo not given) + CN1CCN(c2cc(C(=O)Nc3cc4cc(-c5cnn(C)c5)ccc4cn3)ccn2)CC1
Marked response: active

Exam item: Moving on to Nc1ccccc1NC(=O)c1ccc(CNC(=O)OCc2cccnc2)cc1 + CN1CCN(c2cc(C(=O)Nc3cc4cc(-c5cnn(C)c5)ccc4cn3)ccn2)CC1
Marked response: active

Exam item: Moving on to C=C(F)C(=O)N1CCN(c2nc(OCC3CCCN3C)nc3c2CCN(c2cccc4cccc(Cl)c24)C3)CC1CC#N (stereo not given) + CN1CCN(c2cc(C(=O)Nc3cc4cc(-c5cnn(C)c5)ccc4cn3)ccn2)CC1
Marked response: active

Exam item: Moving on to CCCS(=O)(=O)Nc1ccc(F)c(C(=O)c2c[nH]c3ncc(-c4ccc(Cl)cc4)cc23)c1F + CNC(=O)c1ccc(Nc2nc(OC3CCCC3)c3c(-c4ccc5nc(C)oc5c4)c[nH]c3n2)c(OC)c1
Marked response: inactive

Exam item: Moving on to COc1ccc([C@@H](O)c2cc(-c3ncnc4cc(N5CCOCC5)ccc34)c(F)cc2Cl)nn1 + CN1CCN(c2cc(C(=O)Nc3cc4cc(-c5cnn(C)c5)ccc4cn3)ccn2)CC1
Marked response: active

Exam item: Moving on to O=c1[nH]cc(F)c(=O)[nH]1 + CN1CCN(c2cc(C(=O)Nc3cc4cc(-c5cnn(C)c5)ccc4cn3)ccn2)CC1
Marked response: active

Exam item: Moving on to CCc1c2c(nc3ccc(O)cc13)-c1cc3c(c(=O)n1C2)COC(=O)[C@]3(O)CC + CNC(=O)c1ccc(Nc2nc(OC3CCCC3)c3c(-c4ccc5nc(C)oc5c4)c[nH]c3n2)c(OC)c1
Marked response: inactive

Exam item: Moving on to CC1(C)CCC(CN2CCN(c3ccc(C(=O)NS(=O)(=O)c4ccc(NCC5CCOCC5)c([N+](=O)[O-])c4)c(Oc4cnc5[nH]ccc5c4)c3)CC2)=C(c2ccc(Cl)cc2)C1 + CN1CCN(c2cc(C(=O)Nc3cc4cc(-c5cnn(C)c5)ccc4cn3)ccn2)CC1
Marked response: active

Exam item: Moving on to CC(=O)O[C@H]1C(=O)[C@@]2(C)[C@H]([C@H](OC(=O)c3ccccc3)[C@]3(O)C[C@H](OC(=O)[C@H](O)[C@@H](NC(=O)c4ccccc4)c4ccccc4)C(C)=C1C3(C)C)[C@]1(OC(C)=O)CO[C@@H]1C[C@@H]2O + CNC(=O)c1ccc(Nc2nc(OC3CCCC3)c3c(-c4ccc5nc(C)oc5c4)c[nH]c3n2)c(OC)c1
Marked response: inactive

Exam item: Moving on to C=CC(=O)N1CCN(c2nc(=O)n(-c3c(C)ccnc3C(C)C)c3nc(-c4c(O)cccc4F)c(F)cc23)C(C)C1 (stereo not given) + CNC(=O)c1ccc(Nc2nc(OC3CCCC3)c3c(-c4ccc5nc(C)oc5c4)c[nH]c3n2)c(OC)c1
Marked response: inactive

Exam item: Moving on to Nc1ccn(C2OC(CO)C(O)C2(F)F)c(=O)n1 (stereo not given) + CN1CCN(c2cc(C(=O)Nc3cc4cc(-c5cnn(C)c5)ccc4cn3)ccn2)CC1
Marked response: active

Exam item: Moving on to COC1C=CCC(C)C(C)S(=O)(=O)NC(=O)c2ccc3c(c2)N(CC2CCC21)CC1(CCCc2cc(Cl)ccc21)CO3 (stereo not given) + CNC(=O)c1ccc(Nc2nc(OC3CCCC3)c3c(-c4ccc5nc(C)oc5c4)c[nH]c3n2)c(OC)c1
Marked response: inactive

Exam item: Moving on to C=CC(=O)N1CCN(c2nc(=O)n(-c3c(C)ccnc3C(C)C)c3nc(-c4c(O)cccc4F)c(F)cc23)C(C)C1 (stereo not given) + CN1CCN(c2cc(C(=O)Nc3cc4cc(-c5cnn(C)c5)ccc4cn3)ccn2)CC1
Marked response: active

Exam item: Moving on to Cn1ncnc1[C@H]1c2n[nH]c(=O)c3cc(F)cc(c23)N[C@@H]1c1ccc(F)cc1 + CNC(=O)c1ccc(Nc2nc(OC3CCCC3)c3c(-c4ccc5nc(C)oc5c4)c[nH]c3n2)c(OC)c1
Marked response: inactive

Exam item: Moving on to COc1cccc2c1C(=O)c1c(O)c3c(c(O)c1C2=O)CC(O)(C(=O)CO)CC3OC1CC(N)C(O)C(C)O1 (stereo not given) + CNC(=O)c1ccc(Nc2nc(OC3CCCC3)c3c(-c4ccc5nc(C)oc5c4)c[nH]c3n2)c(OC)c1
Marked response: inactive

Exam item: Moving on to Cn1ncnc1[C@H]1c2n[nH]c(=O)c3cc(F)cc(c23)N[C@@H]1c1ccc(F)cc1 + CN1CCN(c2cc(C(=O)Nc3cc4cc(-c5cnn(C)c5)ccc4cn3)ccn2)CC1
Marked response: active

Exam item: Moving on to CC1COCCN1c1cc(C2(S(C)(=N)=O)CC2)nc(-c2ccnc3[nH]ccc23)n1 (stereo not given) + CNC(=O)c1ccc(Nc2nc(OC3CCCC3)c3c(-c4ccc5nc(C)oc5c4)c[nH]c3n2)c(OC)c1
Marked response: inactive

Exam item: Moving on to COc1cccc2c1C(=O)c1c(O)c3c(c(O)c1C2=O)CC(O)(C(=O)CO)CC3OC1CC(N)C(O)C(C)O1 (stereo not given) + CN1CCN(c2cc(C(=O)Nc3cc4cc(-c5cnn(C)c5)ccc4cn3)ccn2)CC1
Marked response: active
